Measured values drawn from patent US12187722B2 for this set.

# target_or_system: TEAD2 (Homo sapiens (Human))
# test_method_notes: In vitro palmitoylation (TEAD2 autopalmitoylation, streptavidin blot)
# Assay type: biochemical
# condition_details: compound at 10 μM; Table 3
recorded_endpoint: inhibition at 10 µM (%)

Here's what some known entries look like.
[
  {
    "compound": "COc1ccc(Nc2ccc(N(C)c3ccc(S(F)(F)(F)(F)F)cc3)cc2)c(C(=O)O)c1 [CP-528]",
    "endpoint_unit": "%",
    "inhibition at 10 µM": 76
  },
  {
    "compound": "COc1ccc(Nc2cnc(Oc3ccc(C4CCCCC4)cc3Cl)nc2)c(C(=O)O)c1 [CP-616]",
    "endpoint_unit": "%",
    "inhibition at 10 µM": 73
  },
  {
    "compound": "COc1ccc(Nc2ccc(N(C)c3ccc(C(F)(F)F)cc3)cc2C)c(C(=O)O)c1 [CP-563]",
    "endpoint_unit": "%",
    "inhibition at 10 µM": 80
  },
  {
    "compound": "CN(c1ccc(C2CCCCC2)cc1)c1cc(C2CC2)c(Nc2cccc(C(=O)O)n2)cn1 [CP-663]",
    "endpoint_unit": "%",
    "inhibition at 10 µM": 45
  }
]

(I) COc1ccc(Nc2ccc(N(C)c3ccc(S(F)(F)(F)(F)F)cc3)nc2)c(C(=O)O)c1 [CP-595]
(II) CN(c1ccc(C2CCCCC2)cc1)c1ccc(Nc2cccc(C(=O)O)n2)cn1 [CP-643]
(III) Cc1cc(N(C)c2ccc(C3CCCCC3)cc2)ncc1Nc1ccc(OC2CC2)cc1C(=O)O [CP-673]
(IV) COc1ccc(Nc2ccc(N(C)c3ccc(C4CCCCC4)nc3)cc2)c(C(=O)O)c1 [CP-578]
Prompt: rank_up(items): orders items by reported inhibition at 10 µM in ascending numerical order. List the labels in the requested order.
Response: III, IV, I, II
(III: 15%, IV: 31%, I: 51%, II: 89%)

====

# target_or_system: TEAD2 (Homo sapiens (Human), UniProt Q15562)
# Sequence (Q15562 whole entry): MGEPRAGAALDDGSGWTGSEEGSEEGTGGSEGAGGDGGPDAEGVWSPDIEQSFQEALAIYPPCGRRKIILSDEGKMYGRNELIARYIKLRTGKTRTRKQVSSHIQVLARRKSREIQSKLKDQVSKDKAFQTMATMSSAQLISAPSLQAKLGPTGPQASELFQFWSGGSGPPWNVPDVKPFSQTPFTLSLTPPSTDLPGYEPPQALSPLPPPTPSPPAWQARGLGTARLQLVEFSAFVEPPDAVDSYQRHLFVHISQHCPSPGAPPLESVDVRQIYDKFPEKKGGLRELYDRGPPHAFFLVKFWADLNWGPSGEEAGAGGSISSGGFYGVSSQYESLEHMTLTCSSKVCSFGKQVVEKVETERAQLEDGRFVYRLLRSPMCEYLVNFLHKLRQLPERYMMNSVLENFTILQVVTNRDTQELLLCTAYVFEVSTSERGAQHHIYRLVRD
# test_method_notes: In vitro palmitoylation (TEAD2 autopalmitoylation, streptavidin blot)
# Format: biochemical
# condition_details: compound at 10 μM; Table 2
recorded_endpoint: % of inhibition of TEAD2 palmitoylation at 10 μM (%)

Here's what some known entries look like.
[
  {
    "molecule": "O=C(Nc1ccc(C23CC4CC(CC(C4)C2)C3)cc1)c1cccc(Nc2ccccc2C(=O)O)c1 [Compound 214]",
    "target_or_system": "TEAD2 (Homo sapiens (Human), UniProt Q15562)",
    "endpoint_unit": "%",
    "assay_result": 73
  },
  {
    "molecule": "CN(c1ccc(Nc2ccc(C34CC5CC(CC(C5)C3)C4)cc2)cc1)c1ccccc1C(=O)O [Compound 165]",
    "target_or_system": "TEAD2 (Homo sapiens (Human), UniProt Q15562)",
    "endpoint_unit": "%",
    "assay_result": 85
  },
  {
    "molecule": "O=C(O)c1cccc(Nc2cc(C(F)(F)F)cc3[nH]c4ccc(C56CC7CC(CC(C7)C5)C6)cc4c23)n1 [Compound 154]",
    "target_or_system": "TEAD2 (Homo sapiens (Human), UniProt Q15562)",
    "endpoint_unit": "%",
    "assay_result": 43
  },
  {
    "molecule": "O=C(O)C1CCCCC1Nc1ccc(Nc2ccc(C34CC5CC(CC(C5)C3)C4)cc2Cl)cc1 (stereo not shown) [Compound 47]",
    "target_or_system": "TEAD2 (Homo sapiens (Human), UniProt Q15562)",
    "endpoint_unit": "%",
    "assay_result": 83
  },
  {
    "molecule": "O=C(Nc1ccccc1C(=O)O)c1cccc(Nc2ccc(C34CC5CC(CC(C5)C3)C4)cc2)c1 [Compound 239]",
    "target_or_system": "TEAD2 (Homo sapiens (Human), UniProt Q15562)",
    "endpoint_unit": "%",
    "assay_result": 100
  }
]

(a) O=C(CNc1ccc(Nc2ncccc2C(=O)O)cc1)Nc1ccc(C23CC4CC(CC(C4)C2)C3)cc1 [Compound 181]
(b) O=C(Nc1ccc(C23CC4CC(CC(C4)C2)C3)cc1)c1ccc(Nc2cccc(C(=O)O)n2)cc1 [Compound 148]
Prompt: Of a versus b , which is the one with smaller reported % of inhibition of TEAD2 palmitoylation at 10 μM? Give the label under which the chosen entry appears.
Response: a
(a: 41%, b: 69%)

====

# target_or_system: TEAD2 (Homo sapiens (Human))
# test_method_notes: In vitro palmitoylation (TEAD2 autopalmitoylation, streptavidin blot)
# Assay type: biochemical
# condition_details: compound at 10 μM; Table 3
recorded_endpoint: inhibition at 10 µM (%)

Here's what some known entries look like.
[
  {
    "compound": "COc1ccc(Nc2ccc(N(C)c3ccc(C4CC5CCC4C5)cc3)cc2F)c(C(=O)O)c1 (stereo not shown)",
    "target_or_system": "TEAD2 (Homo sapiens (Human))",
    "inhibition at 10 µM (%)": 86
  },
  {
    "compound": "COc1ccc(Nc2ccc(F)cc2Oc2ccc(C34CC5CC(C)(CC(C)(C5)C3)C4)cc2Cl)c(C(=O)O)c1",
    "target_or_system": "TEAD2 (Homo sapiens (Human))",
    "inhibition at 10 µM (%)": 59
  },
  {
    "compound": "COCCC(=O)Nc1ccc(C(=O)O)c(Nc2ccc(N(C)c3ccc(C45CC6CC(CC(C6)C4)C5)cc3)cc2)c1",
    "target_or_system": "TEAD2 (Homo sapiens (Human))",
    "inhibition at 10 µM (%)": 50
  }
]

(I) COc1ccc(Nc2ccc(N(C)c3ccc(C(F)(F)F)cc3)cc2)c(C(N)=O)c1
(II) Cc1cc(C(=O)Nc2cccc(C(=O)O)c2)ccc1Nc1ccc(C2CCCCC2)cc1
Prompt: Of I versus II , which is the one with smaller reported inhibition at 10 µM? Give the label under which the chosen entry appears.
Response: I

====

# target_or_system: TEAD2 (Homo sapiens (Human), UniProt Q15562)
# test_method_notes: In vitro palmitoylation (TEAD2 autopalmitoylation, streptavidin blot)
# Assay type: biochemical
# condition_details: compound at 10 μM; Table 3
# Method: Recombinant GST-TEAD2 or His6TEAD2 (500 ng) protein was pre-incubated with the compounds at indicated concentrations for 15 min. and then incubated with 1 μM of alkyne palmitoyl-5 CoA (Cayman Chemical) for 30 min or 50 mM MES, pH 6.4, followed by Click reaction with biotin-azide as previously described (Zheng, B. et al., J. Am. Chem. Soc., 2013, 135, 7082-7085). […]
recorded_endpoint: inhibition at 10 µM (%)

Here's what some known entries look like.
[
  {
    "smi": "Cc1cc(N(C)c2ccc(C3CCCCC3)cc2)ccc1Nc1ccc(OC2CC2)cc1C(=O)O",
    "target_or_system": "TEAD2 (Homo sapiens (Human), UniProt Q15562)",
    "recorded_endpoint": "inhibition at 10 µM",
    "assay_result": 96
  },
  {
    "smi": "COc1ccc(Nc2cnc(Oc3ccc(C4CCCCC4)cc3Cl)cc2C)c(C(=O)O)c1",
    "target_or_system": "TEAD2 (Homo sapiens (Human), UniProt Q15562)",
    "recorded_endpoint": "inhibition at 10 µM",
    "assay_result": 57
  },
  {
    "smi": "Cc1cc(N(C)c2ccc(C3CCCCC3)cc2)ccc1Nc1ccc(C(=O)N2CC(C#N)C2)cc1C(=O)O",
    "target_or_system": "TEAD2 (Homo sapiens (Human), UniProt Q15562)",
    "recorded_endpoint": "inhibition at 10 µM",
    "assay_result": 59
  },
  {
    "smi": "COc1ccc(Nc2ccc(N(C)c3ccc(C(F)(F)F)cn3)cc2)c(C(=O)O)c1",
    "target_or_system": "TEAD2 (Homo sapiens (Human), UniProt Q15562)",
    "recorded_endpoint": "inhibition at 10 µM",
    "assay_result": 42
  },
  {
    "smi": "COc1ccc(Nc2ccc(N(C)c3nc(C4CCCCC4)cs3)cc2)c(C(=O)O)c1",
    "target_or_system": "TEAD2 (Homo sapiens (Human), UniProt Q15562)",
    "recorded_endpoint": "inhibition at 10 µM",
    "assay_result": 63
  }
]

(P) O=C(O)c1cccc(NC(=O)c2ccc(Nc3ccc(C4CCCCC4)cc3)cc2)c1
(Q) Cc1cc(N(C)c2ccc(OCC(F)(F)F)cc2)ccc1Nc1cccc(C(=O)O)n1
Prompt: Of P versus Q , which is the one with smaller reported inhibition at 10 µM? Give the label under which the chosen entry appears.
Response: Q

====

# target_or_system: TEAD2 (Homo sapiens (Human))
# test_method_notes: In vitro palmitoylation (TEAD2 autopalmitoylation, streptavidin blot)
# Format: biochemical
# condition_details: compound at 10 μM; Table 2
recorded_endpoint: inhibition at 10 µM (%)

Here's what some known entries look like.
[
  {
    "compound": "CN(c1ccc(C(=O)Nc2ccc(C34CC5CC(CC(C5)C3)C4)cc2)cc1)c1ncccc1C(=O)O [Compound 147]",
    "inhibition at 10 µM [%]": 70
  },
  {
    "compound": "CN(c1ccc(OCC23CC4CC(CC(C4)C2)C3)cc1)c1ccc(N(C)c2ccccc2C(=O)O)cc1 [Compound 208]",
    "inhibition at 10 µM [%]": 100
  }
]

(1) CN(c1cnc(Nc2ccc(C34CC5CC(CC(C5)C3)C4)cc2Cl)cn1)c1ccccc1C(=O)O [Compound 144]
(2) O=C(O)c1cncc(Nc2ccc(Nc3ccc(C45CC6CC(CC(C6)C4)C5)cc3Cl)cc2)n1 [Compound 115]
Prompt: Of 1 versus 2 , which is the one with smaller reported inhibition at 10 µM? Give the label under which the chosen entry appears.
Response: 2
(2: 67%, 1: 100%)
